# TEST_NAME: Stabilizing agent: dried yeast cells containing SAM with added compound preserved at 25° C. for 7 days
# Type: physicochemical
Give SAM residual rate for every item shown.
Write down the numeric answer in % and omit the unit.

SAM residual rate recorded for this compound, [Ca+2].[Cl-].[Cl-] [Calcium chloride] , is 93.7

SAM residual rate recorded for this compound, O.O.O.O.O.O.O.O=S(=O)([O-])[O-].[Fe+2] [Ferrous sulfate heptahydrate] , is 90.4

SAM residual rate recorded for this compound, O=S(=O)([O-])[O-].[Zn+2] [Zinc sulfate] , is 94.3

SAM residual rate recorded for this compound, N.O=P(O)(O)O [Ammonium dihydrogen phosphate] , is 93.6

SAM residual rate recorded for this compound, O=S(=O)([O-])[O-].[Cu+2] [Copper sulfate] , is 94.2

SAM residual rate recorded for this compound, O=S(=O)([O-])[O-].[Mg+2] [Magnesium sulfate] , is 101.6
